# Tested on: PDC 899932-113-R3-J6 complex spheroid viability;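 further: spheroids exposed to agents for seven days before readout; 100% = DMSO vehicle control wells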
# protocol: Anticancer human tumor 899932-113-R3-J6-PDC patient-derived melanoma cell line growth inhibition [RAS]
# measurement context: second compound 0.1 µM; first compound 0.03 µM; hits give low values
Listing: viability, T/C of selected molecules
reported endpoint: viability, T/C

CCc1c2c(nc3ccc(O)cc13)-c1cc3c(c(=O)n1C2)COC(=O)[C@]3(O)CC + C#Cc1c(F)ccc2cc(O)cc(-c3ncc4c(N5CC6CCC(C5)N6)nc(OCC56CCCN5CC(F)C6)nc4c3F)c12
50.2%
CC1(C)CCC(Nc2ncc(C(F)(F)F)c(-c3c[nH]c4c(P(C)(C)=O)c(C#N)ccc34)n2)CN1 (centres undefined) + C=CC(=O)N1CCN(c2nc(OCC3CCCN3C)nc3c(F)c(-c4nc(N)cc(C)c4C(F)(F)F)c(Cl)cc23)C(C)C1
28.1%
CC1(C)CCC(Nc2ncc(C(F)(F)F)c(-c3c[nH]c4c(P(C)(C)=O)c(C#N)ccc34)n2)CN1 (centres undefined) + C#Cc1c(F)ccc2cc(O)cc(-c3ncc4c(N5CC6CCC(C5)N6)nc(OCC56CCCN5CC(F)C6)nc4c3F)c12
42.8%
CCc1c2c(nc3ccc(O)cc13)-c1cc3c(c(=O)n1C2)COC(=O)[C@]3(O)CC + C=CC(=O)N1CCN(c2nc(OCC3CCCN3C)nc3c(F)c(-c4nc(N)cc(C)c4C(F)(F)F)c(Cl)cc23)C(C)C1
55.7%

Attribution: PubChem BioAssay AID2060895
